# test: protein stability index of a GFP-peptide fusion (yeast GPS) (PSI 1-4); higher = more stable; sorted into four equal gates, so the index is relative within each strain
# studyConditions: san1∆
measurementLabel: protein stability index
Keep the answer to the number alone.

chain: APNTLTNILISPLNTTT [YML103C/NUP188]
numericResult: 2.03

chain: SSKTSQPKPLFSFGKSD [YOR098C/NUP1]
numericResult: 2.19

chain: PTVKYNRKVRAGRGFTL [RPL13A]
numericResult: 2.94

chain: DVNLDVRIHSIQVLTEA [IRR1]
numericResult: 2.78

chain: GNSEAIPGLSAGVNNDN [RTT102]
numericResult: 3.39

q: # lookup: protein stability index of CIIFITFEFINIAFDAH [YML031W/NDC1]
a: 1.38

q: # lookup: protein stability index of VRNACKRLIAHDWLNAL [YCG1]
a: 2.83

q: # lookup: protein stability index of ANICLTFLESINGINWR [SIN4]
a: 2.46

q: # lookup: protein stability index of FPMPYENEEFITFLQTL [ECM29]
a: 2.4

q: # lookup: protein stability index of KALKTNINFASGVKNDI [CDC53]
a: 2.83

q: # lookup: protein stability index of QARTATLKYICAECSSK [RPC10]
a: 2.84

q: # lookup: protein stability index of EYYAKKRAFTKKVASAN [RPL16A]
a: 1.69

q: # lookup: protein stability index of VGHLSILPQQSKLKLKN [ECM29]
a: 1.88

q: # lookup: protein stability index of LLNTDHTLDPSLLESGS [RPO21]
a: 2.99

----------
# test: protein stability index of a GFP-peptide fusion (yeast GPS) (PSI 1-4); higher = more stable; sorted into four equal gates, so the index is relative within each strain
# studyConditions: pdr5∆
Label rule, in plain words: protein stability index of 3 and up is Condition met, under 3 is Condition not met.

chain: KISFNLRLKLFLYEILS [SRB8]
class: Condition not met

chain: GTHNMYKEIRDVSRVAA [RPL20A]
class: Condition not met

chain: SDESIERLMTWKFKSLI [RRI2]
class: Condition not met

q: Check the entry DSTNLSDDAAQFMKRFP [ECM29] : does protein stability index equal or exceed 3?
a: Condition not met

q: Check the entry EYIDAEEEESILIAMQP [RPB2] : does protein stability index equal or exceed 3?
a: Condition met

q: Check the entry KEHEPCIIFMDEVDAIG [RPT4] : does protein stability index equal or exceed 3?
a: Condition not met

----------
protein stability index reference
# test: protein stability index of a GFP-peptide fusion (yeast GPS) (PSI 1-4); higher = more stable; sorted into four equal gates, so the index is relative within each strain
# studyConditions: doa10∆
Keep the answer to the number alone.

Some sequences with recorded protein stability index:
chain: LKTLVQGPRSYFLDVKC [RPS27A]
protein stability index: 3.08
--
chain: KPNDLVGVNKDSYLILD [RPT5]
protein stability index: 3.05
--
chain: SVSLLNSDIANLRTQVT [SMC1]
protein stability index: 3.04
--
chain: NEKEQLSFINPKTGKVE [SEC65]
protein stability index: 2.98

Attention now turns to another entry.
q: # lookup: protein stability index of KTDTKVSFRTHNSHLSL [SRP21]
a: 3.03

----------
# test: protein stability index of a GFP-peptide fusion (yeast GPS) (PSI 1-4); higher = more stable; sorted into four equal gates, so the index is relative within each strain
# studyConditions: ubr1∆
measurementLabel: protein stability index
Keep the answer to the number alone.

Some sequences with recorded protein stability index:
chain: NIPRRELKINLPLTEHK [SRB4]
protein stability index: 3.03

chain: NQNFSLTFQPQQQTNAL [GRR1]
protein stability index: 2.94

q: # lookup: protein stability index of EDRNQRIKEMYWKLWID [FAS1]
a: 3.08

----------
# test: protein stability index of a GFP-peptide fusion (yeast GPS) (PSI 1-4); higher = more stable; sorted into four equal gates, so the index is relative within each strain
# studyConditions: pdr5∆
protein stability index reference
Keep the answer to the number alone.

Some sequences with recorded protein stability index:
chain: TNSNNTPLQSQLNLNNL [PGD1]
protein stability index: 3.01

chain: NILTTHLSHPGTNKDMI [ECM29]
protein stability index: 2.2

chain: NASKVISTPIINAVLVN [RPO31]
protein stability index: 2.19

chain: SVLQLFQSVQLNINNPN [SMC2]
protein stability index: 1.89

chain: LNRFNFQNTNTRSALKL [QCR2]
protein stability index: 2.91

q: # lookup: protein stability index of ASSGPRYIVGVRNSVDR [RPT4]
a: 1.42

----------
# test: protein stability index of a GFP-peptide fusion (yeast GPS) (PSI 1-4); higher = more stable; sorted into four equal gates, so the index is relative within each strain
# studyConditions: doa10∆
protein stability index reference
Keep the answer to the number alone.

chain: SLFSKIKTFFTQKDSAR [YAR002W/NUP60]
measurementLabel: protein stability index
numericResult: 2.21

chain: NKKSEQALDISKKGKPT [SRP72]
measurementLabel: protein stability index
numericResult: 3.1

Attention now turns to another entry.
q: # lookup: protein stability index of DNTSHDEQDDDNVNSTT [BRN1]
a: 3

----------
protein stability index reference
# test: protein stability index of a GFP-peptide fusion (yeast GPS) (PSI 1-4); higher = more stable; sorted into four equal gates, so the index is relative within each strain
# studyConditions: san1∆

Some sequences with recorded protein stability index:
chain: IPGGPKFEPLYPREEEE [PRP8]
result: 3.01
//
chain: AALDITNVQRIAAYIRR [SMC1]
result: 3.24
//
chain: SLEENAMSTVTLGVVGK [SKI6]
result: 3.04
//
chain: CDKSVCRKCYARLPPRA [RPL40A]
result: 2.56
//
chain: KSCEPVSISTSVKPHVV [SIR4]
result: 2.28
//
chain: LYGKRFFPYYVHTIIAG [PRE7]
result: 1.13
//
chain: AQKCGWTIPHKKWNDLK [SIR2]
result: 3.26
//
chain: AEDGSRSTKDMIDAVFE [SNF6]
result: 3.31
//
chain: DKVSSCFPQYVNSKQGA [NNF1]
result: 2.11
//
chain: VTVFLFMLILALFVFYS [COB]
result: 2.27

q: # lookup: protein stability index of LAAVPAAGPASAGGAAA [RPP2A]
a: 1.4

q: # lookup: protein stability index of YLFDEIDAALDKQYRTA [SMC3]
a: 2.61

q: # lookup: protein stability index of LGILKKKRFDEFMAGFN [SMC4]
a: 1.88

q: # lookup: protein stability index of FRKKRKFELGRQPANTK [RPS8A]
a: 3.13

q: # lookup: protein stability index of PLLESFITFSLDDWISI [IRR1]
a: 2.5

q: # lookup: protein stability index of LTFHTLKKANIIYHTTF [YLR018C/POM34]
a: 2

----------
# test: protein stability index of a GFP-peptide fusion (yeast GPS) (PSI 1-4); higher = more stable; sorted into four equal gates, so the index is relative within each strain
# studyConditions: san1∆
protein stability index reference
Keep the answer to the number alone.

Some sequences with recorded protein stability index:
chain: FRNPTPLLSNYASKINR [RGR1]
measurementLabel: protein stability index
numericResult: 1.34
//
chain: DNDTVVTNDDKSDDDDH [SRB8]
measurementLabel: protein stability index
numericResult: 3.24
//
chain: PKASSAKFFLNVSDEQL [ITC1]
measurementLabel: protein stability index
numericResult: 3.17
//
chain: SDEVSRGIPRLSEDELR [SMC4]
measurementLabel: protein stability index
numericResult: 3.39
//
chain: DGTAKEVGDEADNTKDK [MED4]
measurementLabel: protein stability index
numericResult: 3.34

q: # lookup: protein stability index of TPVSHNDDLYGKVTDVR [RPL1A]
a: 2.81

q: # lookup: protein stability index of NLRRHSDIVLDKKVTLI [SIN4]
a: 2.87

----------
protein stability index reference
# test: protein stability index of a GFP-peptide fusion (yeast GPS) (PSI 1-4); higher = more stable; sorted into four equal gates, so the index is relative within each strain
# studyConditions: pdr5∆
Keep the answer to the number alone.

q: # lookup: protein stability index of DLSYIEFLFESLKNDLP [ECM29]
a: 2.65

q: # lookup: protein stability index of MESIGSDILTAEKMRGN [RRP4]
a: 3.43

----------
# test: protein stability index of a GFP-peptide fusion (yeast GPS) (PSI 1-4); higher = more stable; sorted into four equal gates, so the index is relative within each strain
# studyConditions: doa10∆
Label rule, in plain words: protein stability index of 3 and up is class 1, under 3 is class 0.

chain: NYNSTSRSTEKKNDMNT [SIR4]
class: class 0
//
chain: FDFIKDNETPSKKTSPK [YOR098C/NUP1]
class: class 0
//
chain: DRVVSSDSLDIAQGIDL [SRP72]
class: class 0
//
chain: MLWGGASMLGLFVFTEG [QCR10]
class: class 0
//
chain: TKAVEFSMGHIRSSSVS [MED4]
class: class 1
//
chain: ADVHFLDCDGGFIDASC [RRP45]
class: class 1

q: Check the entry SSYEEFLERFDFYTRHH [ITC1] : does protein stability index equal or exceed 3?
a: class 1
